Assay: Pharmacokinetic interaction study of oral DAS with nutraceuticals in acetic acid-induced UC Wistar rats (UPLC-MS/MS of plasma)
Type: in vivo
Settings: male, Wistar, rat, plasma, time 3 h, DAS 25 mg/kg oral, read-out: Conc*10 (ng/mL plasma), average DAS plasma concentration
test.readout: concentration at 3 h (ng/mL)
Answers are plain numbers, in ng/mL.

query: What does the data say about its concentration at 3 h? Entry: Cc1nc(Nc2ncc(C(=O)Nc3c(C)cccc3Cl)s2)cc(N2CCN(CCO)CC2)n1 [DAS, Dasatinib]
result: 99.7

---

Test: Pharmacokinetic interaction study of oral DAS with nutraceuticals in acetic acid-induced UC Wistar rats (UPLC-MS/MS of plasma)
Type: in vivo
Details: male, Wistar, rat, plasma, time 24 h, DAS 25 mg/kg oral, read-out: Conc*10 (ng/mL plasma), average DAS plasma concentration
test.readout: concentration at 24 h
Your reply should be a number followed by the unit it is expressed in.

query: What does the data say about its concentration at 24 h? Entry: Cc1nc(Nc2ncc(C(=O)Nc3c(C)cccc3Cl)s2)cc(N2CCN(CCO)CC2)n1
result: 39.8 ng/mL

---

Experiment: Stability of DAS in rat plasma QC samples
Format: in vitro ADME
Conditions: extracted rat plasma QC samples; 10°C, 56 h, extracted samples; 3 ng/mL in rat plasma; n = 6; read-out: Mean recovery (%) ±RSD, auto-sampler stability
test.readout: recovery at 56 h, 3 ng/mL (%)
Give bare numbers, in %.

query: What does the data say about its recovery at 56 h, 3 ng/mL? Entry: Cc1nc(Nc2ncc(C(=O)Nc3c(C)cccc3Cl)s2)cc(N2CCN(CCO)CC2)n1
result: 97.3

---

Assay: Pharmacokinetic interaction study of oral DAS with nutraceuticals in acetic acid-induced UC Wistar rats (UPLC-MS/MS of plasma)
Type: in vivo
Details: male, Wistar, rat, plasma, time 2 h, DAS 25 mg/kg oral, read-out: Conc*10 (ng/mL plasma), average DAS plasma concentration
test.readout: concentration at 2 h (ng/mL)
Numbers only, in ng/mL.

query: What does the data say about its concentration at 2 h? Entry: Cc1nc(Nc2ncc(C(=O)Nc3c(C)cccc3Cl)s2)cc(N2CCN(CCO)CC2)n1
result: 117

---

Assay: Stability of DAS in rat plasma QC samples
Assay type: in vitro ADME
Settings: rat plasma QC samples; 25°C, 6 h; 3 ng/mL in rat plasma; n = 6; read-out: Mean recovery (%) ±RSD, short-term stability
test.readout: recovery at 6 h, 3 ng/mL (%)
Give bare numbers, in %.

query: What does the data say about its recovery at 6 h, 3 ng/mL? Entry: Cc1nc(Nc2ncc(C(=O)Nc3c(C)cccc3Cl)s2)cc(N2CCN(CCO)CC2)n1
result: 96.1

---

Assay: Stability of DAS in rat plasma QC samples
Assay type: in vitro ADME
Conditions: DAS solutions, 4°C, 3 ng/mL, n = 6, read-out: Mean recovery (%) ±RSD, refrigerator stability
test.readout: recovery at 3 months, 3 ng/mL
Your reply should be a number followed by the unit it is expressed in.

query: What does the data say about its recovery at 3 months, 3 ng/mL? Entry: Cc1nc(Nc2ncc(C(=O)Nc3c(C)cccc3Cl)s2)cc(N2CCN(CCO)CC2)n1
result: 99.9%

---

Test: Pharmacokinetic interaction study of oral DAS with nutraceuticals in acetic acid-induced UC Wistar rats (UPLC-MS/MS of plasma)
Type: in vivo
Conditions: male, Wistar, rat, DAS in plasma, DAS 25 mg/kg oral, n = 5, mean±SD, read-out: MRT0-t
test.readout: MRT last (h)
Numbers only, in h.

query: What does the data say about its MRT last? Entry: Cc1nc(Nc2ncc(C(=O)Nc3c(C)cccc3Cl)s2)cc(N2CCN(CCO)CC2)n1
result: 8.6
